Origin of measurements: PubChem BioAssay AID1259313

test system: Glutamate receptor ionotropic, NMDA 3A (GRIN3A) ligand-binding domain; experiment: binders of NR3A ligand-binding domain, primary screen, biophysical, differential scanning fluorimetry, uHTS (AID 1259313); conditions: NR3A LBD differential scanning fluorimetry, at 25 µM, 0% = protein alone, 100% = glycine-bound protein
The campaign covered roughly 340,000 compounds. About 8,500 (2.5%) were called active.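 How the source made its calls: active means melting temperature shift of at least 10% of the positive control shift, at one fixed dose; inactive means the rest.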 This is one part of a sample in which actives are shown more often than they occur.
Hi there, use one of these labels in your reply, thanks! label 1 for active, label 0 for inactive

See these solved cases before continuing.
{"COMPOUND": "COc1ccc(S(=O)(=O)N2CCOCC2)cc1NC(=O)c1ccc(OCC(C)C)c(OC)c1", "LABEL CLASS": "label 0"}
{"COMPOUND": "CCN(CC)CCCNC(=O)c1cn(C)c2ccc(S(=O)(=O)N(C)C3CCCCC3)cc2c1=O", "LABEL CLASS": "label 0"}
{"COMPOUND": "C=CCN1C(=O)C(O)(CC(=O)c2ccccn2)c2ccccc21 (stereo unspecified)", "LABEL CLASS": "label 0"}
{"COMPOUND": "CCOC(=O)c1c(-c2ccccc2)oc2cc(Br)c(O)cc12", "LABEL CLASS": "label 1"}
{"COMPOUND": "CCOC(=O)c1cccc(NC(=O)C2CCCN(S(=O)(=O)c3cnc[nH]3)C2)c1 (stereo unspecified)", "LABEL CLASS": "label 0"}
{"COMPOUND": "O=C1CC(NNc2ccccc2)C(=O)N1c1cccc(Cl)c1 (stereo unspecified)", "LABEL CLASS": "label 0"}
{"COMPOUND": "CN(C)CCCn1c(SCc2ccc(Cl)cc2)nnc1-c1ccncc1", "LABEL CLASS": "label 0"}
{"COMPOUND": "COC(=O)c1cccc(-n2[nH]nnc2=S)c1", "LABEL CLASS": "label 0"}

Query string: // outcome(item) with item = "CCOc1ccc(NC(=O)CCNC(=O)c2ccc(Br)cc2)cc1"
Result string: label 0

Query string: Try this compound too: COc1ccc(C2=NN(c3ccccc3)C(c3cccs3)C2)cc1 (stereo unspecified)
Result string: label 0

Query string: Param item: "CCc1ccc(CNC(=O)C2CCN(c3nnc(C)c4c(C)n(-c5ccc(C)cc5)nc34)CC2)cc1"
Result string: label 0

Query string: Now the same for COc1ccccc1NC(=O)c1cc(N2C(=O)C3C4CCC(C4)C3C2=O)ccc1Cl (stereo unspecified)
Result string: label 0

Query string: Input "O=c1ccn(Cc2ccccc2Cl)cc1"
Result string: label 0

Query string: What do you get for "CCN([C@H](CO)C(C)C)S(=O)(=O)c1ccccc1Br" ?
Result string: label 0

Query string: Item: COc1cccc(CC2(CO)CCCN(CC3=Cc4cc(OC)ccc4OC3)C2)c1 (stereo unspecified)
Result string: label 0

Query string: Now the compound "O=C(c1cccc(Br)c1)N1CCN(C2=NS(=O)(=O)c3ccccc32)CC1"
Result string: label 0

Query string: Can you check "CC1=CC=CC2=N/C(=N\S(=O)(=O)c3ccc(F)cc3F)c3ccccc3CN12" next?
Result string: label 0

Query string: What about "O=C(Cn1c(NCCO)nc2ccccc21)c1ccc(Cl)cc1Cl" ?
Result string: label 0

----------
I'd appreciate it if you could supply Tm shift relative to glycine control values for the items below.
system: Glutamate receptor ionotropic, NMDA 3A (GRIN3A) ligand-binding domain; experiment: binders of NR3A ligand-binding domain, primary screen, biophysical, differential scanning fluorimetry, uHTS (AID 1259313); conditions: NR3A LBD differential scanning fluorimetry, at 25 µM, stronger effect = higher value, 0% = protein alone, 100% = glycine-bound protein
The whole screen tested about 340,000 compounds, of which about 8,500 (2.5%) were called active. The full list was thinned out, with actives kept by preference.
Answers are plain numbers, in %.

{"COMPOUND": "CCCCC1(C(=O)OCC)NC(c2ccc(O)cc2)C2C(=O)N(c3ccccc3)C(=O)C21 (stereo unspecified)", "MEASUREMENT TYPE": "Tm shift relative to glycine control", "VALUE OBSERVED": -1.17}
{"COMPOUND": "COc1ccc(CCNC(=O)COC(=O)c2cc(=O)c3ccccc3o2)cc1", "MEASUREMENT TYPE": "Tm shift relative to glycine control", "VALUE OBSERVED": -0.35}

State recorded Tm shift relative to glycine control for all listed compounds.
1. COc1ccc(CNC(=O)c2nnn(CC(=O)Nc3cc(C)cc(C)c3)c2N)cc1
2. Cc1ccccc1N1CC(C(=O)Nc2ccc(S(=O)(=O)N3CCCC3)cc2)CC1=O (stereo unspecified)
3. Cc1ccc(NC(=O)Cn2nnc(C(=O)NCc3ccco3)c2N)c(C)c1
4. COC(=O)C1NN=C(C(=O)c2ccc(Br)cc2)C1c1cccc(Br)c1 (stereo unspecified)
5. Cc1cc([N+](=O)[O-])c(NC2CCCCC2)c([N+](=O)[O-])c1
6. COc1ccc(CNC(=O)c2cc(=O)c3c(C)cc(C)cc3o2)cc1
7. Cc1cc(C)n(S(=O)(=O)c2cccc([N+](=O)[O-])c2)n1

Result string:
29.7
-1.31
1.53
-3.88
1.28
-0.39
-0.54

List Tm shift relative to glycine control for every entry below, keeping the order given.
1. O=C(CN1C(=O)CCS(=O)(=O)c2ccccc21)NCc1ccc(F)cc1
2. COc1cccc(CNC(=O)c2nnn(CC(=O)Nc3cc(Cl)ccc3C)c2N)c1
3. O=C(NCCc1ccccc1Cl)C1CCC(=O)N(CCCc2ccccc2)C1 (stereo unspecified)

Result string:
1: -2.05; 2: 2.58; 3: 3.05

// batch mode: one Tm shift relative to glycine control value per listed entry
1. COc1ccc2oc(=O)cc(-c3cc4ccccc4o3)c2c1
2. Cc1cccc(N2CCN(C(=O)CN(C)S(=O)(=O)c3ccc4c(c3)CCC(=O)N4)CC2)c1C

Result string:
1. -4.08
2. 0.4

Go through the items and report each one's Tm shift relative to glycine control.
1. COC(=O)C1=C(C)N(C)C(C)=C(C(=O)OC)C1c1cccc(Br)c1
2. COc1cc(C(=O)Nn2c(CC(C)C)nc3ccccc3c2=O)cc(OC)c1OC
3. CCc1ccc(NC(=O)Cn2nnc(C(=O)NCc3ccc4c(c3)OCO4)c2N)cc1
4. Cc1cc([N+](=O)[O-])ccc1NS(=O)(=O)c1ccccc1

Result string:
1. 10.9
2. -0.54
3. 8.72
4. -13.4

----------
test system: Glutamate receptor ionotropic, NMDA 3A (GRIN3A) ligand-binding domain; assay: binders of NR3A ligand-binding domain, primary screen, biophysical, differential scanning fluorimetry, uHTS (AID 1259313); conditions: NR3A LBD differential scanning fluorimetry, at 25 µM, stronger effect = higher value, 0% = protein alone, 100% = glycine-bound protein
The whole screen tested about 340,000 compounds, of which about 8,500 (2.5%) were called active. The entries come from a sample that favours actives as a whole.
MEASUREMENT TYPE: Tm shift relative to glycine control

Some molecules with known Tm shift relative to glycine control results, for comparison:
{"MOLECULE": "Cc1ccc(COc2ccc(C(=O)NN)cc2)cc1", "Tm shift relative to glycine control": "-4.77% (inactive)"}
{"MOLECULE": "COc1ccc(Br)cc1CN(C)CC(=O)Nc1cc(Cl)cc(Cl)c1", "Tm shift relative to glycine control": "-14.8% (inactive)"}

// for each molecule below, give its Tm shift relative to glycine control
1. CCCNC(=O)CSc1nc(Cc2ccccc2)nc2ccccc12
2. O=C(COc1nsnc1N1CCOCC1)Nc1ccccc1Cl
3. Cc1cc(N2C(=O)c3ccc(C(=O)NCc4ccccc4)cc3C2=O)no1
4. CCc1nc(SCC(=O)NNC(=O)c2ccc(C)cc2)c2ccccc2n1
5. COc1ccc2c(C)cc3nnnn3c2c1
6. NC(=O)C1CCN(CC(O)CSc2ccc(F)cc2)CC1 (stereo unspecified)

Result string:
1. -0.71% (inactive)
2. 1.49% (inactive)
3. -0.54% (inactive)
4. -0.6% (inactive)
5. 1.26% (inactive)
6. -0.69% (inactive)

Please look at the items below and tell me Tm shift relative to glycine control for each one, in order.
1. COc1ccc(F)cc1S(=O)(=O)NCC(c1ccc2c(c1)OCO2)N1CCN(C)CC1 (stereo unspecified)
2. CCC(C)NC(=O)C1c2ccccc2C(=O)N1Cc1ccccc1 (stereo unspecified)

Result string:
-1.98% (inactive)
0.89% (inactive)

Query string: Requested read-out: Tm shift relative to glycine control. Entry: CCC1(C(=O)c2ccccc2)C(c2cccc([N+](=O)[O-])c2)C1(C(=O)OC)C(=O)OC (stereo unspecified)
Result string: -4.39% (inactive)

----------
system: Glutamate receptor ionotropic, NMDA 3A (GRIN3A) ligand-binding domain; assay: binders of NR3A ligand-binding domain, primary screen, biophysical, differential scanning fluorimetry, uHTS (AID 1259313); conditions: NR3A LBD differential scanning fluorimetry, at 25 µM, stronger effect = higher value, 0% = protein alone, 100% = glycine-bound protein
Hit rate of the full screen: of about 340,000 compounds, about 8,500 (2.5%) were called active. The sample as a whole holds a higher share of actives than the screen did.
MEASUREMENT TYPE: Tm shift relative to glycine control (%)
Answers are plain numbers, in %.

Would you please look over these solved cases?
{"MOLECULE": "O=C(Nc1cccc(F)c1)c1cc(-c2ccco2)nc2ccccc12", "READOUT UNIT": "%", "Tm shift relative to glycine control": 11.7}
{"MOLECULE": "Cc1ccsc1C1C(C#N)=C(N)OC2=C1C(=O)CC(C)(C)C2 (stereo unspecified)", "READOUT UNIT": "%", "Tm shift relative to glycine control": -2.21}
{"MOLECULE": "CCc1cccc2c3c([nH]c12)C(CC)(CC(=O)O)OCC3 (stereo unspecified)", "READOUT UNIT": "%", "Tm shift relative to glycine control": 14.4}

Quick request: Tm shift relative to glycine control for each listed item, please.
1. CCc1ccc(Oc2coc3cc(O)ccc3c2=O)cc1
2. Cc1cccc(NC(=O)C(C)N2C(=O)C3C4CC(C(Br)C4Br)C3C2=O)c1 (stereo unspecified)
3. Oc1ccc(N=Cc2sc3ccccc3c2Cl)cc1
4. CC12C(=O)N(n3cnnc3)C(=O)C1C1C=CC2C1 (stereo unspecified)
5. C/C(=N/NC(=O)CCc1ccccc1)c1ccco1
6. CC(C)(C)c1ccc(SCCc2ccncc2)cc1
7. CCCOP(=O)(c1ccc(N(C)C)cc1)C(O)c1cc(OC)c(OC)c(OC)c1 (stereo unspecified)
8. O=C(N/N=C/c1ccccn1)c1ccc(S(=O)(=O)N2CCCCCC2)cc1

Result string:
1: -1.09; 2: 13.7; 3: 15.5; 4: 0.47; 5: 13.4; 6: 0.08; 7: 3.76; 8: -1.75
